Tested on: NCI-H446
Method: Cytotoxicity against human NCI-H446 cells after 72 hrs by MTT assay
Assay type: functional, cell-based
Condition Set: NCI-H446, 72 h
Observable: IC50 (µg/mL)

* COc1ccc2c(=O)n(C)c(=S)sc2c1OC | 60.2
* COc1cc2sc(=S)n(C)c(=O)c2cc1O | 79.2
* COc1cccc2c1C(=O)c1c(O)c3c(c(O)c1C2=O)C[C@@](O)(C(=O)CO)C[C@@H]3O[C@H]1C[C@H](N)[C@H](O)[C@H](C)O1 | 0.0248

====

Tested on: HL-60
Method: Cytotoxicity against human HL60 cells after 72 hrs by MTT assay
Format: functional, cell-based
Condition Set: HL-60, 72 h
Observable: IC50

• COc1ccc2c(=O)n(C)c(=S)sc2c1OC [BRETSCHNEIDERAZINE B] = > 100 µg/mL
• COc1cc2sc(=S)n(C)c(=O)c2cc1O [BRETSCHNEIDERAZINE A] = > 100 µg/mL
• COc1cc(CO[C@@H]2O[C@H](CO[C@@H]3OC[C@](O)(CO)[C@H]3O)[C@@H](O)[C@H](O)[C@H]2O)ccc1O [BRETSCHNEIDEROSIDE C] = > 100 µg/mL
• COc1cccc2c1C(=O)c1c(O)c3c(c(O)c1C2=O)C[C@@](O)(C(=O)CO)C[C@@H]3O[C@H]1C[C@H](N)[C@H](O)[C@H](C)O1 [DOXORUBICIN] = 0.457 µg/mL
• COc1cc(C=O)ccc1O[C@@H]1O[C@H](CO[C@@H]2OC[C@](O)(CO)[C@H]2O)[C@@H](O)[C@H](O)[C@H]1O [BRETSCHNEIDEROSIDE A] = > 100 µg/mL
• O=Cc1ccc(O[C@@H]2O[C@H](CO[C@@H]3OC[C@](O)(CO)[C@H]3O)[C@@H](O)[C@H](O)[C@H]2O)c(O)c1 [BRETSCHNEIDEROSIDE B] = > 100 µg/mL
